target: GAL4 DBD-CfEcR(DEF)/VP16AD-MmRXRE (Choristoneura fumiferana, UniProt O77240); construct: The wild-type D, E, and F domains from spruce budworm Choristoneura fumiferana EcR (“CfEcR-DEF”); assay: 13B3 assay: luciferase reporter gene induction in stable CHO clone 13B3; format: cell-based; settings: maximum fold induction relative to that of GS-E ligand
readout label: Rel Max FI, 13B3 assay

For each of the compounds below, state Rel Max FI, 13B3 assay.
1. CCOC(=O)CCC(=O)NN1C(c2cc(C)cc(C)c2)=NOC1(C)CC (stereo not drawn)
2. CCC1(C)ON=C(c2cc(C)cc(C)c2)N1NC(=O)c1cc2ccccc2s1 (stereo not drawn)
3. COc1ccc(C2=NOC(C)(C)N2NC(=O)c2ccccc2)c(OC)c1

0
0.14
0
